Rt (retention time) values by entry
- TEST PROTOCOL: Analytical RP-HPLC retention time (correlates with overall hydrophobicity)
- Format: physicochemical
- Set-up: unit not given here
- CONDITION: chromatographic measure of hydrophobicity; Waters Acquity UPLC BEH C18 (1.7 µm, 150 × 2.1 mm), flow rate 0.3 ml/min, gradient 2% B 1 min, 2%–100% B 16 min; single peak or first of two 5(6)-Cf isomer peaks
Ends that are not written are not given here.
In your answer, state the number alone without any accompanying words.

Recorded Rt (retention time), per entry:
Cf-YGRKKRRQRRR [Cf-Tat, 5(6)-carboxyfluorescein-labeled Tat]: 4.6
Cf-KWKLFKKIGAVLKVL [Cf-CM15, 5(6)-carboxyfluorescein-labeled CM15]: 9.6
RAGLQFPVGRVHRLLRK-NH2 [Buforin, reference compound]: 6.6
KRLFKKLLFSLRKY-NH2 [Dhvar4, reference compound]: 6.9

As a next step, examine the substance that follows.
Quick check: Rt (retention time) of Cf-YKQCHKKGGKKGSG [Cf-Crot(1-9,38-42), 5(6)-carboxyfluorescein-labeled Crot(1-9,38-42)] ?
5.5
